Molecular target: T1, recombinant human DLL4 (Cat# 1506-D4/CF, R&D Systems) (human, UniProt Q9NR61 27-529)
T1 construct: Bought protein; also called hDLL4; rHuman DLL4
Experiment: ELISA, DLL4 coated, Fab 0.74 nM
property: ELISA absorbance at 450 nm (A450)
Please respond with the number in A450 and leave the unit unwritten.

Solved entries:
binder	unit.abbrev	ELISA absorbance at 450 nm
Fab VH1-46_IGHD6-6*01_IGHJ1*01 S102A/S103P/S104F/H111F N52L/S54T/G56H & L6_IGKJ1*01 S28N/S30D/S31H S52L/A55S (Fab, V domains shown, Fab made in E. coli: VH on CH1 with His6 and Flag tags (Plasmid A), VL on kappa CL (Plasmid C); also called H: APFF LTH & L: NDH LS) VH: QVQLVQSGAEVKKPGASVKVSCKASGYTFTSYYMHWVRQAPGQGLEWMGIILPTGHSTSYAQKFQGRVTMTRDTSTSTVYMELSSLRSEDTAVYYCAREEYAPFSAEYFQFWGQGTLVTVSS VL: EIVLTQSPATLSLSPGERATLSCRASQNVDHYLAWYQQKPGQAPRLLIYDALNRSTGIPARFSGSGSGTDFTLTISSLEPEDFAVYYCQQRSNWPPWTFGQGTKVEIKR	A450	0.398
Fab VH1-46_IGHD6-6*01_IGHJ1*01 S102A/S103P/S104F/H111F I51A/N52L/S54T/G56H & L6_IGKJ1*01 S28N/S30D/S31H (Fab, V domains shown, Fab made in E. coli: VH on CH1 with His6 and Flag tags (Plasmid A), VL on kappa CL (Plasmid C); also called H: APFF ALTH & L: NDH) VH: QVQLVQSGAEVKKPGASVKVSCKASGYTFTSYYMHWVRQAPGQGLEWMGIALPTGHSTSYAQKFQGRVTMTRDTSTSTVYMELSSLRSEDTAVYYCAREEYAPFSAEYFQFWGQGTLVTVSS VL: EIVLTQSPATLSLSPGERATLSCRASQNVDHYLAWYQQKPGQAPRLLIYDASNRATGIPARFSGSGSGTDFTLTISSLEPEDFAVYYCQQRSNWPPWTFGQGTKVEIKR	A450	0.024

[ask] Given Fab VH1-46_IGHD6-6*01_IGHJ1*01 S102A/S103P/S104F/H111F I51A/N52L/S54T/G56H & L6_IGKJ1*01 S28N/S30D/S31H S52L/A55G (Fab, V domains shown, Fab made in E. coli: VH on CH1 with His6 and Flag tags (Plasmid A), VL on kappa CL (Plasmid C); also called H: APFF ALTH & L: NDH LG) VH: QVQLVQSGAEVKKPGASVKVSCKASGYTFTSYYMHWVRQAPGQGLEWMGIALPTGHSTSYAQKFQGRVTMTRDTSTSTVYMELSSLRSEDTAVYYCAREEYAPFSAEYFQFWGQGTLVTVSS VL: EIVLTQSPATLSLSPGERATLSCRASQNVDHYLAWYQQKPGQAPRLLIYDALNRGTGIPARFSGSGSGTDFTLTISSLEPEDFAVYYCQQRSNWPPWTFGQGTKVEIKR , state its recorded ELISA absorbance at 450 nm.
[reply] 0.028
